system: TxtA; experiment: TxtA substrate scope in TxtA/TxtB reactions; type: biochemical, S. scabies 87.22; details: Example 1, TxtA/B reaction with 4-NO2-L-Trp as TxtB substrate
READOUT KIND: relative activity of TxtA toward substrate, relative to L-Phe

>>> result("N[C@@H](Cc1ccc(F)cc1)C(=O)O [4F-L-phenylalanine]")
"~72%"
>>> result("N[C@@H](Cc1ccccc1F)C(=O)O [2F-L-phenylalanine]")
"same level of activity"
>>> result("N[C@@H](Cc1cccc(F)c1)C(=O)O [3F-L-phenylalanine]")
"same level of activity"

* * *

test system: TxtA; assay: TxtA substrate scope in TxtA/TxtB reactions; format: biochemical, S. scabies 87.22; settings: Table 1, Example 1
Marks after values point to notes of the source that are not given here.
READOUT KIND: TxtA substrate

>>> result("N[C@@H](Cc1ccc(Cl)cc1)C(=O)O")
"++"
>>> result("N[C@@H](Cc1cccc(Cl)c1)C(=O)O")
"++"
>>> result("Cc1cccc(C[C@H](N)C(=O)O)c1")
"++"
>>> result("Cc1ccccc1C[C@H](N)C(=O)O")
"+++"
>>> result("N[C@@H](Cc1ccc(F)cc1)C(=O)O")
"+++"

Recorded result, N[C@@H](Cc1ccc(Br)cc1)C(=O)O , TxtA substrate: +

Recorded result, Cc1ccc(C[C@H](N)C(=O)O)cc1 , TxtA substrate: +++

Recorded result, N[C@@H](Cc1ccccc1F)C(=O)O , TxtA substrate: ++++

Recorded result, N[C@@H](Cc1cccc(F)c1)C(=O)O , TxtA substrate: +++++

Recorded result, N[C@@H](Cc1ccccc1Br)C(=O)O , TxtA substrate: +

Recorded result, N[C@@H](Cc1cccc(Br)c1)C(=O)O , TxtA substrate: +

* * *

tested on: TxtA; assay: TxtA substrate scope in TxtA/TxtB reactions; type: biochemical, S. scabies 87.22; settings: Example 2, reaction of TB14, TxtA and TxtB
READOUT KIND: relative activity of TxtA toward substrate, relative to L-Phe

Recorded result, N[C@@H](Cc1ccccc1F)C(=O)O [2F-L-phenylalanine] , relative activity of TxtA toward substrate, relative to L-Phe: ~73%

* * *

As shown below, each of these molecules has a reported IC50 value.
Tested on: radish seedlings
Assay: Herbicidal activity in radish seedling assay
Type: in vivo
Conditions: total seedling length after 7 days on agar, 0 to 2 μM, mean±SD (n=4)
Procedure: Established protocols were followed to quantitate thaxtomin herbicidal activity in radish seedling assay (Jiang, G. et al. Appl Environ Microbiol 2018 84:e00164-18). […] Seedlings in agar plates grew at room temperature under 14-16 h fluorescent light per day for 7 days, and total seedling lengths were then recorded. […] Percent inhibition relative to the mean growth response in negative control was then calculated. […]
All answers are understood in µM, so give the number only.

>>> quantitative_result("Cc1cccc2[nH]cc(CC3C(=O)N(C)C(Cc4ccccc4)C(=O)N3C)c12 (centres unmarked)")
1.98

Turning to the following molecule.
Recorded result, CN1C(=O)[C@](O)(Cc2cccc(O)c2)N(C)C(=O)[C@@H]1Cc1c[nH]c2cccc([N+](=O)[O-])c12 [Compound 1, thaxtomin A, reference compound] , IC50: 0.39

* * *

test system: TxtA; assay: TxtA substrate scope in TxtA/TxtB reactions; type: biochemical, S. scabies 87.22; conditions: Table 7, Example 2
READOUT KIND: TxtA substrate

See these solved cases before continuing.
>>> result("Cc1ccc(C[C@H](N)C(=O)O)cc1")
"+"
>>> result("N[C@@H](Cc1ccc(Br)cc1)C(=O)O")
"+"
>>> result("Cc1cccc(C[C@H](N)C(=O)O)c1")
"++"
>>> result("N[C@@H](Cc1ccc(Cl)cc1)C(=O)O")
"+"
>>> result("Cc1ccccc1C[C@H](N)C(=O)O")
"++"
>>> result("N[C@@H](Cc1ccccc1)C(=O)O")
"+++++"

Recorded result, N[C@@H](Cc1cccc(Br)c1)C(=O)O , TxtA substrate: +

Recorded result, N[C@@H](Cc1ccc(F)cc1)C(=O)O , TxtA substrate: ++

Recorded result, N[C@@H](Cc1cccc(F)c1)C(=O)O , TxtA substrate: +++++

Recorded result, N[C@@H](Cc1ccccc1Br)C(=O)O , TxtA substrate: +

Recorded result, N[C@@H](Cc1ccccc1F)C(=O)O , TxtA substrate: ++++

Recorded result, N[C@@H](Cc1cccc(Cl)c1)C(=O)O , TxtA substrate: +
